Task for the reader: assign each of the following compounds its reported Alkaline Phosphatase Increase - Index Value.
Test system: Hepatotoxicity
Protocol: FDA HLAED, alkaline phosphatase increase
Reported Conditions: human
Give your answer as a number; write no unit.

State the recorded Alkaline Phosphatase Increase - Index Value for this entry: CC(CN(C)C)CN1c2ccccc2CCc2ccccc21 (stereo not drawn)
0

State the recorded Alkaline Phosphatase Increase - Index Value for this entry: O=C1CN(/N=C/c2ccc([N+](=O)[O-])o2)C(=O)N1
32.8

State the recorded Alkaline Phosphatase Increase - Index Value for this entry: C[C@H]1C[C@H]2[C@@H]3CCC4=CC(=O)C=C[C@]4(C)[C@@]3(F)[C@@H](O)C[C@]2(C)[C@@]1(O)C(=O)CCl
0

State the recorded Alkaline Phosphatase Increase - Index Value for this entry: CC1=C(/C=C/C(C)=C/C=C/C(C)=C/C(=O)O)C(C)(C)CCC1
1

State the recorded Alkaline Phosphatase Increase - Index Value for this entry: COc1ccc2c(c1)c(CC(=O)O)c(C)n2C(=O)c1ccc(Cl)cc1
3.1

State the recorded Alkaline Phosphatase Increase - Index Value for this entry: O=C1NC(c2ccccc2)(c2ccccc2)C(=O)N1COP(=O)(O)O
0

State the recorded Alkaline Phosphatase Increase - Index Value for this entry: CN1C(C(=O)Nc2ccccn2)=C(O)c2ccccc2S1(=O)=O
2.6

State the recorded Alkaline Phosphatase Increase - Index Value for this entry: CO[C@@]1(NC(=O)C2SC(=C(C(N)=O)C(=O)O)S2)C(=O)N2C(C(=O)O)=C(CSc3nnnn3C)CS[C@@H]21 (stereo partly drawn)
0.7

State the recorded Alkaline Phosphatase Increase - Index Value for this entry: CC(N)C12CC3CC(CC(C3)C1)C2 (stereo not drawn)
1.7

State the recorded Alkaline Phosphatase Increase - Index Value for this entry: CC1Cc2ccccc2N1NC(=O)c1ccc(Cl)c(S(N)(=O)=O)c1 (stereo not drawn) [INDAPAMIDE]
0.5

State the recorded Alkaline Phosphatase Increase - Index Value for this entry: Cc1ccc(C)c(OCCCC(C)(C)C(=O)O)c1
0

State the recorded Alkaline Phosphatase Increase - Index Value for this entry: CC(C)(C)NCC(O)c1ccc(O)c(CO)c1 (stereo not drawn)
0

State the recorded Alkaline Phosphatase Increase - Index Value for this entry: O=C(O)COCCN1CCN(C(c2ccccc2)c2ccc(Cl)cc2)CC1 (stereo not drawn)
0

State the recorded Alkaline Phosphatase Increase - Index Value for this entry: CCCCC(=O)N(Cc1ccc(-c2ccccc2-c2nnn[nH]2)cc1)[C@H](C(=O)O)C(C)C
0

State the recorded Alkaline Phosphatase Increase - Index Value for this entry: CC(=O)[C@]1(O)Cc2c(O)c3c(c(O)c2[C@@H](O[C@H]2C[C@H](N)[C@H](O)[C@H](C)O2)C1)C(=O)c1ccccc1C3=O
0

State the recorded Alkaline Phosphatase Increase - Index Value for this entry: Nc1nc2c(ncn2CCC(CO)CO)c(=O)[nH]1
0

State the recorded Alkaline Phosphatase Increase - Index Value for this entry: Nc1nc(F)nc2c1ncn2[C@@H]1O[C@H](CO)[C@@H](O)[C@@H]1O
9.2

State the recorded Alkaline Phosphatase Increase - Index Value for this entry: CCC1=C(C)CN(C(=O)NCCc2ccc(S(=O)(=O)NC(=O)N[C@H]3CC[C@H](C)CC3)cc2)C1=O [GLIMEPIRIDE]
1.2

====

System: Hepatotoxicity
Protocol: FDA HLAED, serum glutamic oxaloacetic transaminase (SGOT) increase
Reported Conditions: human
Readout: SGOT Increase - Index Value
Give your answer as a number; write no unit.

State the recorded SGOT Increase - Index Value for this entry: CCCCC(=O)N(Cc1ccc(-c2ccccc2-c2nnn[nH]2)cc1)[C@H](C(=O)O)C(C)C
5

State the recorded SGOT Increase - Index Value for this entry: Cn1nnnc1SCC1=C(C(=O)O)N2C(=O)[C@@H](NC(=O)[C@H](O)c3ccccc3)[C@H]2SC1
0

State the recorded SGOT Increase - Index Value for this entry: CCOC(=O)[C@H](CCc1ccccc1)N[C@@H](C)C(=O)N1[C@H](C(=O)O)C[C@@H]2CCC[C@@H]21
0.8

State the recorded SGOT Increase - Index Value for this entry: C[C@H](CCC(=O)O)[C@H]1CC[C@H]2[C@@H]3[C@H](O)C[C@@H]4C[C@H](O)CC[C@]4(C)[C@H]3CC[C@]12C
0

State the recorded SGOT Increase - Index Value for this entry: CC[N+](C)(C)Cc1ccccc1Br.Cc1ccc(S(=O)(=O)[O-])cc1 [BRETYLIUM TOSYLATE]
0

State the recorded SGOT Increase - Index Value for this entry: CC1Cc2ccccc2N1NC(=O)c1ccc(Cl)c(S(N)(=O)=O)c1 (configuration not stated) [INDAPAMIDE]
1

State the recorded SGOT Increase - Index Value for this entry: C[C@@H]1O[C@@H]1P(=O)(O)O
0

State the recorded SGOT Increase - Index Value for this entry: CC(C)n1c(/C=C/C(O)CC(O)CC(=O)O)c(-c2ccc(F)cc2)c2ccccc21 (configuration not stated)
1

State the recorded SGOT Increase - Index Value for this entry: CO/N=C(\C(=O)N[C@@H]1C(=O)N2C(C(=O)O)=C(COC(N)=O)CS[C@H]12)c1ccco1
0.2

State the recorded SGOT Increase - Index Value for this entry: CC(CCc1ccc(O)cc1)NCCc1ccc(O)c(O)c1 (configuration not stated)
0

State the recorded SGOT Increase - Index Value for this entry: Cn1cnc([N+](=O)[O-])c1Sc1ncnc2nc[nH]c12
5

State the recorded SGOT Increase - Index Value for this entry: CC(C)(C)NC(=O)[C@H]1CC[C@H]2[C@@H]3CC[C@H]4NC(=O)C=C[C@]4(C)[C@H]3CC[C@]12C [FINASTERIDE]
2.7

State the recorded SGOT Increase - Index Value for this entry: Clc1ccc(CSC(Cn2ccnc2)c2ccc(Cl)cc2Cl)cc1 (configuration not stated)
0

State the recorded SGOT Increase - Index Value for this entry: COc1cccc(C2(O)CCCCC2CN(C)C)c1 (configuration not stated)
0.5

State the recorded SGOT Increase - Index Value for this entry: COc1c(C)c2c(c(O)c1C/C=C(\C)CCC(=O)O)C(=O)OC2
3.8

State the recorded SGOT Increase - Index Value for this entry: Cc1ccc(C(=O)Oc2ccc(C(O)CNC(C)(C)C)cc2OC(=O)c2ccc(C)cc2)cc1 (configuration not stated)
0

State the recorded SGOT Increase - Index Value for this entry: CO/N=C(\C(=O)N[C@@H]1C(=O)N2C(C(=O)OC(C)OC(C)=O)=C(COC(N)=O)CS[C@H]12)c1ccco1 (some centres not stated)
0

====

Test system: Hepatotoxicity
Protocol: FDA HLAED, serum glutamic oxaloacetic transaminase (SGOT) increase
Reported Conditions: human
Categories are defined by ranges of SGOT Increase - Index Value, namely lower bin: < 0.5; middle bin: ≥ 0.5 and < 4; upper bin: ≥ 4

Band for the recorded SGOT Increase - Index Value of FC(F)OC(Cl)C(F)(F)F (stereo not given) ?
middle bin

Band for the recorded SGOT Increase - Index Value of C=CCN1C[C@H](C(=O)N(CCCN(C)C)C(=O)NCC)C[C@@H]2c3cccc4[nH]cc(c34)C[C@H]21 ?
lower bin

Band for the recorded SGOT Increase - Index Value of COc1ccc2cc([C@H](C)C(=O)O)ccc2c1 ?
lower bin

Band for the recorded SGOT Increase - Index Value of CCOC(=O)c1ncn2c1CN(C)C(=O)c1cc(F)ccc1-2 ?
middle bin

Band for the recorded SGOT Increase - Index Value of CCC(=O)[C@@]1(C)[C@H](C)C[C@H]2[C@@H]3CCC4=CC(=O)C=C[C@]4(C)[C@H]3[C@@H](O)C[C@@]21C [RIMEXOLONE] ?
lower bin

Band for the recorded SGOT Increase - Index Value of NNC(=O)c1ccncc1 ?
upper bin

Band for the recorded SGOT Increase - Index Value of C[C@]12CC[C@H]3[C@@H](CCC4=CC(=O)CC[C@@]43C)[C@@H]1CC[C@@H]2OC(=O)CCC1CCCC1 [TESTOSTERONE CYPIONATE] ?
upper bin

Band for the recorded SGOT Increase - Index Value of CNS(=O)(=O)Cc1ccc2[nH]cc(CCN(C)C)c2c1 ?
lower bin

Band for the recorded SGOT Increase - Index Value of CCCCCCC(=O)O[C@H]1CC[C@H]2[C@@H]3CCc4cc(O)ccc4[C@H]3CC[C@]12C [ESTRADIOL ENANTHATE] ?
middle bin

Band for the recorded SGOT Increase - Index Value of Cc1ncc2n1-c1ccc(Cl)cc1C(c1ccccc1F)=NC2 ?
lower bin

Band for the recorded SGOT Increase - Index Value of Nc1ccn([C@@H]2O[C@H](CO)[C@@H](O)[C@@H]2O)c(=O)n1 ?
upper bin

Band for the recorded SGOT Increase - Index Value of CCc1c2c(nc3ccc(OC(=O)N4CCC(N5CCCCC5)CC4)cc13)-c1cc3c(c(=O)n1C2)COC(=O)[C@]3(O)CC ?
upper bin

Band for the recorded SGOT Increase - Index Value of Nc1ccn(C[C@@H](CO)OCP(=O)(O)O)c(=O)n1.O.O ?
upper bin

Band for the recorded SGOT Increase - Index Value of O=c1n(CCCN2CCN(c3cccc(Cl)c3)CC2)nc2ccccn12 ?
lower bin

Band for the recorded SGOT Increase - Index Value of Nc1nc2c(ncn2CCC(CO)CO)c(=O)[nH]1 ?
lower bin

Band for the recorded SGOT Increase - Index Value of CC(N)C12CC3CC(CC(C3)C1)C2 (stereo not given) ?
middle bin

Band for the recorded SGOT Increase - Index Value of CCCCCCCCCCC(=O)O[C@H]1CC[C@H]2[C@@H]3CCc4cc(O)ccc4[C@H]3CC[C@]12C [ESTRADIOL UNDECYLATE] ?
middle bin

Band for the recorded SGOT Increase - Index Value of N=C(N)NC(=O)Cc1c(Cl)cccc1Cl ?
middle bin

Band for the recorded SGOT Increase - Index Value of CC(C)(C)NCC(O)c1ccc(O)c(CO)n1 (stereo not given) ?
lower bin

Band for the recorded SGOT Increase - Index Value of CC(C)C(=O)Nc1ccc([N+](=O)[O-])c(C(F)(F)F)c1 [FLUTAMIDE] ?
upper bin

Band for the recorded SGOT Increase - Index Value of C#CCN(C)[C@H](C)Cc1ccccc1 ?
lower bin

Band for the recorded SGOT Increase - Index Value of CCCCCCCCCCCCCCCCCC(=O)O.CC[C@H]1OC(=O)[C@H](C)[C@@H](O[C@H]2C[C@@](C)(OC)[C@@H](O)[C@H](C)O2)[C@H](C)[C@@H](O[C@@H]2O[C@H](C)C[C@H](N(C)C)[C@H]2OC(C)=O)[C@](C)(O)C[C@@H](C)C(=O)[C@H](C)[C@@H](O)[C@]1(C)O [ERYTHROMYCIN ACISTRATE] ?
upper bin

Band for the recorded SGOT Increase - Index Value of Cn1cc([S+](C)[O-])c(=O)c2ccc(F)cc21 (stereo not given) ?
upper bin

Band for the recorded SGOT Increase - Index Value of CC(=O)O[C@H]1C[C@@H]2CC[C@@H]3[C@H](CC[C@@]4(C)[C@H]3C[C@H]([N+]3(C)CCCCC3)[C@@H]4OC(C)=O)[C@@]2(C)C[C@@H]1N1CCCCC1.[Br-] [VECURONIUM BROMIDE] ?
middle bin

Band for the recorded SGOT Increase - Index Value of Cc1ccccc1N1CCN(CCc2nnc3n2CCCC3)CC1 ?
lower bin

Band for the recorded SGOT Increase - Index Value of FC(F)OC(F)C(F)(F)F (stereo not given) ?
middle bin

Band for the recorded SGOT Increase - Index Value of N=C(N)c1ccc(OCCCCCOc2ccc(C(=N)N)cc2)cc1 ?
upper bin

Band for the recorded SGOT Increase - Index Value of CN1CCN2c3ncccc3Cc3ccccc3C2C1 (stereo not given) ?
middle bin

Band for the recorded SGOT Increase - Index Value of CCOC(=O)[C@H](CCc1ccccc1)N[C@@H](C)C(=O)N1CCC[C@H]1C(=O)O ?
middle bin

Band for the recorded SGOT Increase - Index Value of Cc1ccc(Cl)c(Nc2ccccc2C(=O)O)c1Cl ?
lower bin

Band for the recorded SGOT Increase - Index Value of O=C(NCC1CCCCN1)c1cc(OCC(F)(F)F)ccc1OCC(F)(F)F (stereo not given) [FLECAINIDE] ?
upper bin

Band for the recorded SGOT Increase - Index Value of CCCNCC(O)COc1ccccc1C(=O)CCc1ccccc1 (stereo not given) ?
upper bin

Band for the recorded SGOT Increase - Index Value of CC(C)NCC(O)c1ccc(NS(C)(=O)=O)cc1 (stereo not given) ?
middle bin

Band for the recorded SGOT Increase - Index Value of CC(=O)CCCCn1c(=O)c2c(ncn2C)n(C)c1=O ?
middle bin
